- tested target: T1, HCV Core1-169 (hepatitis C virus (HCV-1), UniProt P26664 1-169)
- T1 sequence: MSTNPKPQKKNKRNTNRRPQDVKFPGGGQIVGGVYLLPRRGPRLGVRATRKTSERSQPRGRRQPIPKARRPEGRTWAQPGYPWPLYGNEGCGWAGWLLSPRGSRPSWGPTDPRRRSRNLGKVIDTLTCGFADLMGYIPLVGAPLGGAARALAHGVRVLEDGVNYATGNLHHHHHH
- assay overview: SPR sandwich, capture mAb C11-14
measurement kind: expected percent binding (%)
One number for each entry, in %.

1. HCV 208B-556 (antibody, V domains shown) VH: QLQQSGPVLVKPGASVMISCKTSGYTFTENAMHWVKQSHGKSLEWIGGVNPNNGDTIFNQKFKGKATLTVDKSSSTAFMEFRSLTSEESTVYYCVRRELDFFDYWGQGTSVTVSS VL: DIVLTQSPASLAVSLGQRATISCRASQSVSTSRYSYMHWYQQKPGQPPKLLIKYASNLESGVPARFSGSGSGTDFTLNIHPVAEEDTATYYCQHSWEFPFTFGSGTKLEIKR ... 12.7

--- query ---
[in] Fill blank: measured expected percent binding of the binder HCV 208A-293 (antibody, V domains shown) VH: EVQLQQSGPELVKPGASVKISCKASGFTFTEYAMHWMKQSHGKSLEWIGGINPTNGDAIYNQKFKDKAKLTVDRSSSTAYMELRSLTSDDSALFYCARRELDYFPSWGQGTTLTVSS VL: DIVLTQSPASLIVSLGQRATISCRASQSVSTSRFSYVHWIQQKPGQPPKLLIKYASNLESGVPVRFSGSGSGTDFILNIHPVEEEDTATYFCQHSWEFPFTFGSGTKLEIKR is ____.
[out] 16.4

Hello, the source for this data is patent US20170052184A1, in case you need it.
